System: Palmitoyl CoA oxidation
Test: Mitochondrial assay: palmitoyl CoA oxidation
Type: biochemical
Conditions: Rat heart mitochondria, 16 µM 1-14C palmitoyl CoA, 15 min at 30°C, 14C bicarbonate counted; read-out: PalmCoA IC50
Source text: Rat heart mitochondria were isolated by the method ofNedergard and Cannon (Methods in Enzymol. 55, 3, 1979). […]
The reader will find reported pIC50 values listed item by item below.
Please report pIC50 as the negative decimal logarithm of the molar concentration, giving only the number.

>  <given smiles>
Cc1nc2cc(OC[C@H](O)CN3CCN(CC(=O)Nc4nc(-c5ccc(Cl)cc5)cs4)C[C@@H]3C)ccc2s1

>  <pIC50>
6.40

$$$$
>  <given smiles>
Cc1nc2cc(OC[C@H](O)CN3CCN(CC(=O)N[C@@H](C)c4ccc5ccccc5c4)CC3)ccc2s1

>  <pIC50>
6.07

$$$$
>  <given smiles>
CCn1c2ccccc2c2cc(NC(=O)CN3CCN(C[C@@H](O)COc4ccc5sc(C)nc5c4)CC3)ccc21

>  <pIC50>
6.07

$$$$

Dear colleague, I am looking for the recorded pIC50 of the following compound: Cc1nc2cc(OC[C@H](O)CN3CCN(CC(=O)N[C@@H](C)c4ccccc4)CC3)ccc2s1 5.36

Also Cc1nc2cc(OC[C@H](O)CN3CCN(CC(=O)Nc4cccc5cccnc45)CC3)ccc2s1 ? 5.28

Also Cc1nc2cc(OC[C@H](O)CN3CCN(CC(=O)N[C@H]4CCCc5ccccc54)CC3)ccc2s1 ? 7.10

Also Cc1nc2cc(OC[C@H](O)CN3CCN(CC(=O)Nc4ccc(Oc5ccccc5)cc4)CC3)ccc2s1 ? 6.48

Also Cc1nc2cc(OC[C@H](O)CN3CCN(CC(=O)Nc4cccc5c4CCC5)CC3)ccc2s1 ? 4.82

Also Cc1nc2cc(OC[C@H](O)CN3CCN(CC(=O)Nc4nc(-c5ccc(Cl)cc5)cs4)CC3)ccc2s1 ? 5.15

Also Cc1nc2cc(OC[C@H](O)CN3CCN(CC(=O)Nc4cccc(-c5ccccc5)c4)CC3)ccc2s1 ? 6.74

Also O=C(CN1CCN(C[C@@H](O)COc2ccc3oc(-c4ccccc4)nc3c2)CC1)Nc1ccc2ncccc2c1 ? 5.21

Also O=C(CN1CCN(C[C@@H](O)COc2ccc3oc(-c4ccccc4)nc3c2)CC1)Nc1cccc(Oc2ccccc2)c1 ? 5.07
